biological target: NAD-dependent protein deacetylase sirtuin-2 (Homo sapiens); assay: Inhibition of human recombinant SIRT2 using Arg-His-Lys-Lys(epsilon-acetyl)-AMC at 37 degC for 45 mins by fluorescent screening assay
Sequence (Q8IXJ6 whole entry): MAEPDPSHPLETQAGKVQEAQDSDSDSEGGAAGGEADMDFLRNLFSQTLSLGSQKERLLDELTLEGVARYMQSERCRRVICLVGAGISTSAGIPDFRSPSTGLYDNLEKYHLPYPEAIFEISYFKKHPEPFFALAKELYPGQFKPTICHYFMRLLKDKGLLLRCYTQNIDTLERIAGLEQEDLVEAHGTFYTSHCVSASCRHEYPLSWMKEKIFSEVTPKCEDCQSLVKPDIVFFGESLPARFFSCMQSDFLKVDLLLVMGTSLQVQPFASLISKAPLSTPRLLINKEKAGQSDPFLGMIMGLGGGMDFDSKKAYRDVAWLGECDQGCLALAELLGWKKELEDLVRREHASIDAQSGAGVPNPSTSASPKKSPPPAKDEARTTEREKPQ
Measure: pIC50
A value of pIC50 is the negative decimal logarithm of a concentration given in moles per litre.

// query pIC50 value for entry CC[C@@H]1CC(=O)[C@H]2[C@@H](CC=C(C)[C@@H]2O)[C@]1(C)C(=O)C1=C(O)NCC1=O 2.35

----------
biological target: NAD-dependent protein deacetylase sirtuin-1 (Homo sapiens, UniProt Q96EB6); assay: Inhibition of human recombinant SIRT1 using Arg-His-Lys-Lys(epsilon-acetyl)-AMC at room temperature for 45 mins by fluorescent screening assay
Sequence (Q96EB6 whole entry): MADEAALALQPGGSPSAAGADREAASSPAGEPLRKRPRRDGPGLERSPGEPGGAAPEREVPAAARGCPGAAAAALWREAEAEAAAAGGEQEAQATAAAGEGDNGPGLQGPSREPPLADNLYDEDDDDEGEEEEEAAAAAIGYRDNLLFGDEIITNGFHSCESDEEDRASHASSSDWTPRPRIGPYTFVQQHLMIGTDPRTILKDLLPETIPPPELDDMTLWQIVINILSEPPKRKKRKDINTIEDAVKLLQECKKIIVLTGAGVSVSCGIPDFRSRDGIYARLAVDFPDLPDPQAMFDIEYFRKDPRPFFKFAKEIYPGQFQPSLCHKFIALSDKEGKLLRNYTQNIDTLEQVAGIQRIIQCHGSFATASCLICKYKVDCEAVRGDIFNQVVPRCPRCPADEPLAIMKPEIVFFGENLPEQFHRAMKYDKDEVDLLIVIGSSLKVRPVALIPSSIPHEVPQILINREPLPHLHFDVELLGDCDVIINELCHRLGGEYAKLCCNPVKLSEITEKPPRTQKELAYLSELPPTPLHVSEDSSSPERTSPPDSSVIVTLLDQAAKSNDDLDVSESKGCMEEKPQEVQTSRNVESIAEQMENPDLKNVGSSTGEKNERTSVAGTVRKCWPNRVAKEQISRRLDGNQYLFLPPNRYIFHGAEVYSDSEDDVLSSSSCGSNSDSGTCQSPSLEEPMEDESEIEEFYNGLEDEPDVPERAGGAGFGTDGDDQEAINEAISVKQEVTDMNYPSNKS
Measure: IC50
Give the value; after it, write the unit.

// query IC50 value for entry CC[C@@H]1CC(=O)[C@H]2[C@@H](CC=C(C)[C@@H]2O)[C@]1(C)C(=O)C1=C(O)NCC1=O 3.7 mM
